Measured values drawn from ChEMBL document CHEMBL3603761 for this set.

Test system: MDA-MB-231
Experiment: Cytotoxicity against human MDA-MB-231 cells after 48 hrs by CellTiter-Blue assay
Type: functional, cell-based
Conditions: MDA-MB-231, 48 h
Property Measured: pIC50
Give bare numbers, as −log10 of the molar value.

// lookup pIC50 for `C=C(CCCCCCCCCCCCCCCC)S(=O)(=O)CCC[N+](C)(C)C.[Cl-]`
6.41

###

Tested on: OVCAR-3
Assay: Cytotoxicity against human OVCAR3 cells after 48 hrs by CellTiter-Blue assay
Assay type: functional, cell-based
Settings: OVCAR-3, 48 h
Property Measured: pIC50
Numbers only, as −log10 of the molar value.

I have this molecule here, `C=C(CCCCCCCCCCCCCCCC)S(=O)(=O)CCC[N+](C)(C)C.[Cl-]` , and I need its recorded pIC50.
5.35

###

Test: Cytotoxicity against human SB2 cells after 48 hrs by CellTiter-Blue assay
Assay type: functional, cell-based
Settings: SB2, 48 h
Property Measured: IC50 (µM)
Answers are plain numbers, in µM.

I'd like to know its IC50. The compound in question is `C=C(CCCCCCCCCCCCCCCC)S(=O)(=O)CCC[N+](C)(C)C.[Cl-]`
4.89

###

Reported pKi, Autotaxin (Homo sapiens).
Give bare numbers, as −log10 of the molar value.

- Smiles Data: "C=C(CCCCCCCC/C=C\\CCCCCCCC)S(=O)(=O)CCC[N+](C)(C)C"
  pKi: 5.61
- Smiles Data: "C=C(CCCCCCCCCCCC)S(=O)(=O)CCC[N+](C)(C)C"
  pKi: 5.75

Attention now turns to another entry.
Query (compound): `C=C(CCCCCCCCCCCCCCCC)S(=O)(=O)CCC[N+](C)(C)C.[Cl-]` ; field requested: pKi
5.46
